// reported zone of inhibition at 5 µg/disc per item
# Test system: Klebsiella pneumoniae
# PROCEDURE DETAILS: Antimicrobial activity against Klebsiella pneumoniae at 5 ug after 24 hrs by disk diffusion method
# Type: functional
# RUN CONDITIONS: read-out: IZ

>  <MOLECULE>
Cn1c(=O)c2cc3n(c2n(C)c1=O)CC1C3Nc2ccc(Cl)cc2C1(C)C (stereo unspecified)

>  <TARGET OR TEST SYSTEM>
Klebsiella pneumoniae

>  <zone of inhibition at 5 µg/disc>
20 mm

$$$$
>  <MOLECULE>
O=C(O)c1cn(C2CC2)c2cc(N3CCNCC3)c(F)cc2c1=O

>  <TARGET OR TEST SYSTEM>
Klebsiella pneumoniae

>  <zone of inhibition at 5 µg/disc>
24 mm

$$$$
>  <MOLECULE>
COc1ccc2c(c1)C(c1ccccc1)[C@@H]1Cn3cccc3[C@@H]1N2 (stereo partly specified)

>  <TARGET OR TEST SYSTEM>
Klebsiella pneumoniae

>  <zone of inhibition at 5 µg/disc>
10 mm

$$$$
>  <MOLECULE>
c1ccc(C2c3ccccc3N[C@H]3c4cccn4C[C@@H]23)cc1 (stereo partly specified)

>  <TARGET OR TEST SYSTEM>
Klebsiella pneumoniae

>  <zone of inhibition at 5 µg/disc>
20 mm

$$$$
>  <MOLECULE>
O=C1c2ccccc2C(=O)C12Nc1ccc(Br)cc1[C@H]1OCCC[C@H]12

>  <TARGET OR TEST SYSTEM>
Klebsiella pneumoniae

>  <zone of inhibition at 5 µg/disc>
8 mm

$$$$
>  <MOLECULE>
c1ccc(C2c3cc(Cc4ccc5c(c4)C(c4ccccc4)C4Cn6cccc6C4N5)ccc3NC3c4cccn4CC32)cc1 (stereo unspecified)

>  <TARGET OR TEST SYSTEM>
Klebsiella pneumoniae

>  <zone of inhibition at 5 µg/disc>
12 mm

$$$$

---

# System: Bacillus subtilis
# PROCEDURE DETAILS: Antimicrobial activity against Bacillus subtilis at 10 ug after 24 hrs by disk diffusion method
# Type: functional
# RUN CONDITIONS: read-out: IZ
PROPERTY LABEL: zone of inhibition at 10 µg/disc (mm)

>  <COMPOUND>
O=C(O)c1cn(C2CC2)c2cc(N3CCNCC3)c(F)cc2c1=O

>  <PROPERTY LABEL>
zone of inhibition at 10 µg/disc

>  <ASSAY VALUE>
7

$$$$
>  <COMPOUND>
COc1ccc2c(c1)C(c1ccccc1)[C@@H]1Cn3cccc3[C@@H]1N2 (some centres undefined)

>  <PROPERTY LABEL>
zone of inhibition at 10 µg/disc

>  <ASSAY VALUE>
8

$$$$
>  <COMPOUND>
c1ccc(C2c3cc(Cc4ccc5c(c4)C(c4ccccc4)C4Cn6cccc6C4N5)ccc3NC3c4cccn4CC32)cc1 (centres undefined)

>  <PROPERTY LABEL>
zone of inhibition at 10 µg/disc

>  <ASSAY VALUE>
9

$$$$
>  <COMPOUND>
c1ccc(C2c3ccccc3N[C@H]3c4cccn4C[C@@H]23)cc1 (some centres undefined)

>  <PROPERTY LABEL>
zone of inhibition at 10 µg/disc

>  <ASSAY VALUE>
7

$$$$

---

# Tested on: Salmonella typhimurium
# PROCEDURE DETAILS: Antimicrobial activity against Salmonella Typhimurium at 15 ug after 24 hrs by disk diffusion method
# Assay type: functional, Salmonella enterica subsp. enterica serovar Typhimurium
# RUN CONDITIONS: Salmonella enterica, read-out: IZ
Parameter zone of inhibition at 15 µg/disc: see the listing below.

>  <MOLECULE>
O=C1c2ccccc2C(=O)C12Nc1ccc(Br)cc1[C@H]1OCCC[C@H]12

>  <zone of inhibition at 15 µg/disc>
13 mm

$$$$
>  <MOLECULE>
O=C(O)c1cn(C2CC2)c2cc(N3CCNCC3)c(F)cc2c1=O

>  <zone of inhibition at 15 µg/disc>
18 mm

$$$$
>  <MOLECULE>
c1ccc(C2c3cc(Cc4ccc5c(c4)C(c4ccccc4)C4Cn6cccc6C4N5)ccc3NC3c4cccn4CC32)cc1 (stereo unspecified)

>  <zone of inhibition at 15 µg/disc>
18 mm

$$$$
>  <MOLECULE>
Cn1c(=O)c2cc3n(c2n(C)c1=O)CC1C3Nc2ccc(Cl)cc2C1(C)C (stereo unspecified)

>  <zone of inhibition at 15 µg/disc>
18 mm

$$$$
>  <MOLECULE>
c1ccc(C2c3ccccc3N[C@H]3c4cccn4C[C@@H]23)cc1 (stereo partly specified)

>  <zone of inhibition at 15 µg/disc>
18 mm

$$$$
>  <MOLECULE>
COc1ccc2c(c1)C(c1ccccc1)[C@@H]1Cn3cccc3[C@@H]1N2 (stereo partly specified)

>  <zone of inhibition at 15 µg/disc>
18 mm

$$$$

---

zone of inhibition at 10 µg/disc: recorded values
# Tested on: Escherichia coli
# PROCEDURE DETAILS: Antimicrobial activity against Escherichia coli at 10 ug after 24 hrs by disk diffusion method
# Assay type: functional
# RUN CONDITIONS: read-out: IZ

>  <COMPOUND>
O=C1c2ccccc2C(=O)C12Nc1ccc(Br)cc1[C@H]1OCCC[C@H]12

>  <zone of inhibition at 10 µg/disc (mm)>
9

$$$$
>  <COMPOUND>
c1ccc(C2c3ccccc3N[C@H]3c4cccn4C[C@@H]23)cc1 (stereo partly specified)

>  <zone of inhibition at 10 µg/disc (mm)>
16

$$$$
>  <COMPOUND>
c1ccc(C2c3cc(Cc4ccc5c(c4)C(c4ccccc4)C4Cn6cccc6C4N5)ccc3NC3c4cccn4CC32)cc1 (stereo unspecified)

>  <zone of inhibition at 10 µg/disc (mm)>
14

$$$$
>  <COMPOUND>
O=C(O)c1cn(C2CC2)c2cc(N3CCNCC3)c(F)cc2c1=O

>  <zone of inhibition at 10 µg/disc (mm)>
16

$$$$
>  <COMPOUND>
Cn1c(=O)c2cc3n(c2n(C)c1=O)CC1C3Nc2ccc(Cl)cc2C1(C)C (stereo unspecified)

>  <zone of inhibition at 10 µg/disc (mm)>
16

$$$$
>  <COMPOUND>
COc1ccc2c(c1)C(c1ccccc1)[C@@H]1Cn3cccc3[C@@H]1N2 (stereo partly specified)

>  <zone of inhibition at 10 µg/disc (mm)>
14

$$$$

---

Recorded zone of inhibition at 25 µg/disc, one value per entry.
# Test system: Klebsiella pneumoniae
# PROCEDURE DETAILS: Antimicrobial activity against Klebsiella pneumoniae at 25 ug after 24 hrs by disk diffusion method
# Format: functional
# RUN CONDITIONS: read-out: IZ
PROPERTY LABEL: zone of inhibition at 25 µg/disc (mm)

>  <COMPOUND>
c1ccc(C2c3ccccc3N[C@H]3c4cccn4C[C@@H]23)cc1 (stereo partly specified)

>  <TARGET OR TEST SYSTEM>
Klebsiella pneumoniae

>  <UNIT ABBREV>
mm

>  <ASSAY VALUE>
36

$$$$
>  <COMPOUND>
Cn1c(=O)c2cc3n(c2n(C)c1=O)CC1C3Nc2ccc(Cl)cc2C1(C)C (stereo unspecified)

>  <TARGET OR TEST SYSTEM>
Klebsiella pneumoniae

>  <UNIT ABBREV>
mm

>  <ASSAY VALUE>
36

$$$$
>  <COMPOUND>
c1ccc(C2c3cc(Cc4ccc5c(c4)C(c4ccccc4)C4Cn6cccc6C4N5)ccc3NC3c4cccn4CC32)cc1 (stereo unspecified)

>  <TARGET OR TEST SYSTEM>
Klebsiella pneumoniae

>  <UNIT ABBREV>
mm

>  <ASSAY VALUE>
26

$$$$
>  <COMPOUND>
O=C(O)c1cn(C2CC2)c2cc(N3CCNCC3)c(F)cc2c1=O

>  <TARGET OR TEST SYSTEM>
Klebsiella pneumoniae

>  <UNIT ABBREV>
mm

>  <ASSAY VALUE>
36

$$$$
>  <COMPOUND>
COc1ccc2c(c1)C(c1ccccc1)[C@@H]1Cn3cccc3[C@@H]1N2 (stereo partly specified)

>  <TARGET OR TEST SYSTEM>
Klebsiella pneumoniae

>  <UNIT ABBREV>
mm

>  <ASSAY VALUE>
26

$$$$
>  <COMPOUND>
O=C1c2ccccc2C(=O)C12Nc1ccc(Br)cc1[C@H]1OCCC[C@H]12

>  <TARGET OR TEST SYSTEM>
Klebsiella pneumoniae

>  <UNIT ABBREV>
mm

>  <ASSAY VALUE>
16

$$$$

---

# Test system: Staphylococcus aureus
# PROCEDURE DETAILS: Antimicrobial activity against Staphylococcus aureus by broth microdilution assay
# Type: functional
PROPERTY LABEL: MIC90 (µg/mL)

>  <COMPOUND>
O=C1c2ccccc2C(=O)C12Nc1ccc(Br)cc1[C@H]1OCCC[C@H]12

>  <UNIT ABBREV>
µg/mL

>  <ASSAY VALUE>
64

$$$$
>  <COMPOUND>
O=C(O)c1cn(C2CC2)c2cc(N3CCNCC3)c(F)cc2c1=O

>  <UNIT ABBREV>
µg/mL

>  <ASSAY VALUE>
1

$$$$
>  <COMPOUND>
c1ccc(C2c3cc(Cc4ccc5c(c4)C(c4ccccc4)C4Cn6cccc6C4N5)ccc3NC3c4cccn4CC32)cc1 (stereo not given)

>  <UNIT ABBREV>
µg/mL

>  <ASSAY VALUE>
128

$$$$
>  <COMPOUND>
COc1ccc2c(c1)C(c1ccccc1)[C@@H]1Cn3cccc3[C@@H]1N2 (stereo not given in full)

>  <UNIT ABBREV>
µg/mL

>  <ASSAY VALUE>
0.5

$$$$
>  <COMPOUND>
c1ccc(C2c3ccccc3N[C@H]3c4cccn4C[C@@H]23)cc1 (stereo not given in full)

>  <UNIT ABBREV>
µg/mL

>  <ASSAY VALUE>
128

$$$$
